- Tested Target: HLA-A*0201 (human)
- Experiment Description: competition with 125I-labelled standard peptide (941.01 [..]) for purified HLA, gel filtration
Assay Endpoint: binding affinity ratio (IC50 of standard peptide / IC50 of test peptide)
Please respond with just the number, no unit label.

binder="ELVEKFYDPM (modifications not checked) [PSM peptide … (position 560, 10 amino acids)]" experimental_result=0.0001

Lookup result for ELTDAVKVM (modifications not checked) [PSA peptide … (position 127, 9 amino acids)] ; measured binding affinity ratio (IC50 of standard peptide / IC50 of test peptide): 0.0001

Lookup result for EVTRIYNVI (modifications not checked) [PSM peptide … (position 351, 9 amino acids)] ; measured binding affinity ratio (IC50 of standard peptide / IC50 of test peptide): 0.0002

Lookup result for ELSLLSLYGI (modifications not checked) [PAP peptide … (position 240, 10 amino acids)] ; measured binding affinity ratio (IC50 of standard peptide / IC50 of test peptide): 0.0002

Lookup result for ELTDAVKV (modifications not checked) [PSA peptide ELTDAVKV (position 127, 8 amino acids)] ; measured binding affinity ratio (IC50 of standard peptide / IC50 of test peptide): 0.0001

Lookup result for ELTDAVKVMDL (modifications not checked) [PSA peptide … (position 127, 11 amino acids)] ; measured binding affinity ratio (IC50 of standard peptide / IC50 of test peptide): 0.0001

Lookup result for ETNKFSGYPL (modifications not checked) [PSM peptide … (position 542, 10 amino acids)] ; measured binding affinity ratio (IC50 of standard peptide / IC50 of test peptide): 0.0002

Lookup result for FTGNFSTQKV (modifications not checked) [PSM peptide … (position 333, 10 amino acids)] ; measured binding affinity ratio (IC50 of standard peptide / IC50 of test peptide): 0.0001

Lookup result for ELSELSLLSL (modifications not checked) [PAP peptide … (position 237, 10 amino acids)] ; measured binding affinity ratio (IC50 of standard peptide / IC50 of test peptide): 0.0008

Lookup result for FAELVGPVI (modifications not checked) [PAP peptide … (position 356, 9 amino acids)] ; measured binding affinity ratio (IC50 of standard peptide / IC50 of test peptide): 0.0002

Lookup result for EVFFQRLGI (modifications not checked) [PSM peptide EVFFQRLG (position 522, 9 amino acids as printed)] ; measured binding affinity ratio (IC50 of standard peptide / IC50 of test peptide): 0.0002

Lookup result for ETQHEPYPL (modifications not checked) [PAP peptide … (position 334, 9 amino acids)] ; measured binding affinity ratio (IC50 of standard peptide / IC50 of test peptide): 0.0002
